# IC50 annotations
- ASSAY_TARGET: Human TDO (hTDO)-transfected CHO-K1 cells (Homo sapiens (Human), UniProt P48775)
- Sequence (P48775 whole entry): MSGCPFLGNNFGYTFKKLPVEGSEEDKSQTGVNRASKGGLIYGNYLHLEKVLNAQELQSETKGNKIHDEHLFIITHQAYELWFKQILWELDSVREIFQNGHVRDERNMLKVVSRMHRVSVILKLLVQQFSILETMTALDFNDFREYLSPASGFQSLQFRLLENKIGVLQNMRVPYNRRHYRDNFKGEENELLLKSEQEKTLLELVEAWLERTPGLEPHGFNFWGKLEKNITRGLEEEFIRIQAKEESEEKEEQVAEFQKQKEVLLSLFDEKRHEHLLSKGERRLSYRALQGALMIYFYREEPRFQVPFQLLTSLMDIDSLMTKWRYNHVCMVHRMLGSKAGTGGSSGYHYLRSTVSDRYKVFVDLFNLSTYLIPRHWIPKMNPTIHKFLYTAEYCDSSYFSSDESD
- METHOD_SUMMARY: CHO-K1 cell based TDO assay
- CONDITION_LABEL: hTDO cellular assay

Some compounds with recorded IC50:
Prompt: Report IC50 for Nc1oc2cnccc2c1Nc1cc(F)c(F)cc1F [Compound 12] tested on Human TDO (hTDO)-transfected CHO-K1 cells (Homo sapiens (Human), UniProt P48775).
Completion: > 2000 nM

Prompt: Report IC50 for Nc1sc2ccccc2c1Nc1ccc(Br)c(C(F)(F)F)c1 [Compound 126] tested on Human TDO (hTDO)-transfected CHO-K1 cells (Homo sapiens (Human), UniProt P48775).
Completion: > 2000 nM

Prompt: Report IC50 for Nc1oc2cnccc2c1Nc1cccc(C2CCCCC2)c1 [Compound 88] tested on Human TDO (hTDO)-transfected CHO-K1 cells (Homo sapiens (Human), UniProt P48775).
Completion: 500 to 2000 nM

Prompt: Report IC50 for Nc1oc2c(-c3ccnc(C(=O)N4CCOCC4)c3)nccc2c1Nc1ccc(F)c(Cl)c1 [Compound 272] tested on Human TDO (hTDO)-transfected CHO-K1 cells (Homo sapiens (Human), UniProt P48775).
Completion: 500 to 2000 nM

Prompt: Report IC50 for Nc1oc2cnccc2c1Nc1ccc(I)c(Cl)c1 [Compound 18] tested on Human TDO (hTDO)-transfected CHO-K1 cells (Homo sapiens (Human), UniProt P48775).
Completion: 500 to 2000 nM

Continuing:
Prompt: Report IC50 for Nc1sc2c(-c3cncc4ccccc34)cccc2c1Nc1ccc(F)c(Cl)c1 [Compound 281] tested on Human TDO (hTDO)-transfected CHO-K1 cells (Homo sapiens (Human), UniProt P48775).
Completion: > 2000 nM

Prompt: Report IC50 for Cc1ccc(Nc2c(N)oc3cnccc23)cc1C [Compound 13] tested on Human TDO (hTDO)-transfected CHO-K1 cells (Homo sapiens (Human), UniProt P48775).
Completion: 500 to 2000 nM

Prompt: Report IC50 for Nc1oc2c(C3CCCCC3)nccc2c1Nc1ccc(F)c(Cl)c1 [Compound 108] tested on Human TDO (hTDO)-transfected CHO-K1 cells (Homo sapiens (Human), UniProt P48775).
Completion: 500 to 2000 nM

Prompt: Report IC50 for CCOC(=O)Nc1sc2ccccc2c1Nc1ccc(F)c(Cl)c1 [Compound 209] tested on Human TDO (hTDO)-transfected CHO-K1 cells (Homo sapiens (Human), UniProt P48775).
Completion: > 2000 nM

Prompt: Report IC50 for CCOC(=O)Nc1oc2c(C#Cc3ccc(C(N)=O)cc3)nccc2c1N(C(=O)OCC)c1ccc(F)c(Cl)c1 [Compound 160] tested on Human TDO (hTDO)-transfected CHO-K1 cells (Homo sapiens (Human), UniProt P48775).
Completion: > 2000 nM

Prompt: Report IC50 for NC(=O)c1ccc(-c2nccc3c(Nc4ccc(F)c(Cl)c4)c(N)oc23)cc1 [Compound 151] tested on Human TDO (hTDO)-transfected CHO-K1 cells (Homo sapiens (Human), UniProt P48775).
Completion: 500 to 2000 nM

###

- ASSAY_TARGET: Human TDO (hTDO)-transfected CHO-K1 cells (Homo sapiens (Human), UniProt P48775)
- METHOD_SUMMARY: CHO-K1 cell based TDO assay
- CONDITION_LABEL: hTDO cellular assay
pIC50: −log10 of the molar value.
# pIC50 annotations

Prompt: Which measured pIC50 value corresponds to "Nc1oc2c(-c3ccncc3)nccc2c1Nc1ccccc1Cl" ?
Completion: 5.70 to 6.30

Prompt: Which measured pIC50 value corresponds to "N#Cc1ccc(Nc2c(N)oc3cnccc23)cc1" ?
Completion: 5.70 to 6.30

Prompt: Which measured pIC50 value corresponds to "Cc1nccc2c(Nc3ccc(F)c(Cl)c3)c(N)oc12" ?
Completion: > 6.30

Prompt: Which measured pIC50 value corresponds to "Nc1oc2cnccc2c1Nc1ccc(F)c(OC(F)(F)F)c1" ?
Completion: < 5.70

Prompt: Which measured pIC50 value corresponds to "Nc1oc2cnccc2c1Nc1ccc(F)c(Cl)c1F" ?
Completion: 5.70 to 6.30

Now turn to the next compound.
Prompt: Which measured pIC50 value corresponds to "Nc1oc2c(-c3ccncc3)nccc2c1Nc1ccc(F)cc1" ?
Completion: > 6.30
